Entries annotated with measured Percent Effect
Test target: Tyrosyl-tRNA synthetase, putative (Trypanosoma cruzi (strain CL Brener)) (UniProt Q4DSP6)
Experiment summary: Trypanosoma cruzi tyrosyl tRNA synthetase (TcYRS) _High Tyrosine SOP; note: in the data most compounds retested in dose-response had high values
Type: functional
Design: scale not given: direction of the effect not stated beside the values
Test context: 30 µM
Give just the numeric value; % need not be written.

Cn1ccc(-c2cc(C(=O)N3CCOCC3)c3ccccn23)n1 ... -4.32

Fill blank: measured Percent Effect of the molecule CCC(CNC(=O)Nc1cnn(CC)c1)N1CCCC1 (stereo unspecified) is ____.
3.45

Fill blank: measured Percent Effect of the molecule COC(=O)C(c1cc(F)ccc1F)N(C)C(=O)c1csnn1 (stereo unspecified) is ____.
6.25

Fill blank: measured Percent Effect of the molecule O=C(c1cc(F)ccc1F)C1CCN(C(=O)c2cccnc2O)CC1 is ____.
1.91

Fill blank: measured Percent Effect of the molecule CC(C)(C)n1cc(C(=O)N2CCCN(Cc3cccs3)CC2)cn1 is ____.
1.47

Fill blank: measured Percent Effect of the molecule O=C(Nc1cccnc1)[C@H]1C[C@@H]2CCN(c3nncs3)C[C@H]2O1 is ____.
10.9

Fill blank: measured Percent Effect of the molecule Cc1cnn(CCNCc2ccccc2OCc2cccnc2)c1 is ____.
5.21

Fill blank: measured Percent Effect of the molecule O=C(c1ccc2c(c1)CCC2)N1C[C@@H](CN2CCOCC2)[C@@H](CO)C1 is ____.
3.83

Fill blank: measured Percent Effect of the molecule Cn1cnnc1C1CCN(C(=O)CCCOc2ccccc2F)CC1 is ____.
3.88

Fill blank: measured Percent Effect of the molecule Cc1nn(C)c(C)c1C1CCCN1CCCc1nc2ccccc2o1 (stereo unspecified) is ____.
11.3

Fill blank: measured Percent Effect of the molecule Cc1cc(-c2cnc(N3CCCC(C)C3)nc2-c2cccnc2C)on1 (stereo unspecified) is ____.
-8.6

----------
Entries annotated with measured Percent Effect
Test target: Tyrosyl-tRNA synthetase, putative (Trypanosoma cruzi (strain CL Brener))
Sequence (whole entry): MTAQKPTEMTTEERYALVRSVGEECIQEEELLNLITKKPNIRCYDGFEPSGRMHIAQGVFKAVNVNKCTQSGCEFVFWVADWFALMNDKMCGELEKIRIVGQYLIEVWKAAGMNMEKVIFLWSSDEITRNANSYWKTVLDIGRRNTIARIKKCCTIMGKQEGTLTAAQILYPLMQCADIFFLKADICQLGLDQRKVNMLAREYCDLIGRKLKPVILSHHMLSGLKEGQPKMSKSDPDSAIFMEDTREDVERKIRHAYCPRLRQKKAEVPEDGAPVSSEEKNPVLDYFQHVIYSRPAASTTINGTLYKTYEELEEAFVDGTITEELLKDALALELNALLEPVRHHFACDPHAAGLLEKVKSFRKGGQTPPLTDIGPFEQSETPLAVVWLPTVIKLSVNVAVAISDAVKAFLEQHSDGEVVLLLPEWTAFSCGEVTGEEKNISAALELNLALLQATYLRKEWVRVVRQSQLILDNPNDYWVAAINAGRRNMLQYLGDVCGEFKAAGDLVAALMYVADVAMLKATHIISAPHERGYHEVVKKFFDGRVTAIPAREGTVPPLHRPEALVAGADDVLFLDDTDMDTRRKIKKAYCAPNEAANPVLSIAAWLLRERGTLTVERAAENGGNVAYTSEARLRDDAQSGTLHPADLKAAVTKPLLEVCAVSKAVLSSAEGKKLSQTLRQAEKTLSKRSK
Experiment summary: Trypanosoma cruzi tyrosyl tRNA synthetase (TcYRS) _High Tyrosine SOP; note: in the data most compounds retested in dose-response had high values
Assay type: functional
Set-up: scale not given: direction of the effect not stated beside the values
Test context: 30 µM
Give just the numeric value; % need not be written.

Please review the following examples before continuing.
CCn1nc2c(cc1=O)CN(Cc1nc3ccccc3c(=O)[nH]1)CC2 ... 6.45
Cc1cc2nc(SCC(=O)N3CCOCC3)n(CC(C)C)c(=O)c2[nH]1 ... -1.06
CS(=O)(=O)N1CCCCCC1C1CCN(c2ncccc2C#N)CC1 (centres undefined) ... 0.49

Fill blank: measured Percent Effect of the molecule O=C(NCC1CCOC1)c1csc(-c2ccco2)n1 (centres undefined) is ____.
7.77

Fill blank: measured Percent Effect of the molecule CC(C)NC(=O)N1CCC(n2ccc(C(F)(F)F)n2)CC1 is ____.
0

Fill blank: measured Percent Effect of the molecule COc1ncccc1NC(=O)NC1CCOc2ccccc21 (centres undefined) is ____.
6.93

----------
Test target: Arginase-2, mitochondrial (Homo sapiens)
Experiment summary: in vitro enzyme assay to detect the production of urea directly proportional to the activity of Arginase II; note: in the data most compounds retested in dose-response had high values
Format: functional
Set-up: scale not given: direction of the effect not stated beside the values
Test context: 33.3 µM
Entries annotated with measured Percent Effect
Give just the numeric value; % need not be written.

Please review the following examples before continuing.
O=C(c1ccno1)N1CC[C@@H]2O[C@@H](COCCN3CCCC3)CC[C@@H]21 ... -1.59
CCc1nc(CN2CCCN(c3nc4ccccc4o3)CC2)no1 ... -13.8
CC(=O)N1CCN(c2ccc3ccc(C(=O)NC4CCCC4)cn23)CC1 ... 1.37
COc1cc(C)nc(N2CCN(C(=O)c3ccc(Cl)o3)CC2)n1 ... -0.802
Cc1nc(N2CCCCC2)ncc1-c1cc(O)[nH]n1 ... -8.28
Cn1cc(CN2CC[C@@H]3O[C@H](C(=O)N4CCOCC4)C[C@@H]32)cn1 ... 2.5
Cc1nc(C)n(CC2CCCN(Cc3nnc(-c4ccco4)o3)C2)n1 (stereo unspecified) ... 3.55
c1cncc(OCC2CN(Cc3ccco3)Cc3nccn3C2)c1 (stereo unspecified) ... 0

Fill blank: measured Percent Effect of the compound Cn1nc2c(cc1=O)CN(Cc1coc(-c3cccs3)n1)CC2 is ____.
0.802

Fill blank: measured Percent Effect of the compound Cc1cc(C)n(C2CCCN(C(=O)C3=NN(C)C(=O)CC3)C2)n1 (stereo unspecified) is ____.
-12.8

Fill blank: measured Percent Effect of the compound c1nc2c(c(C3CC3)n1)CCN(Cc1ccc3c(c1)OCO3)CC2 is ____.
-0.399

----------
Entries annotated with measured Percent Effect
Species: Homo sapiens
Experiment summary: To identify inhibition of the IFN signalling (Jak-Stat) pathway via expression of an eGFP reporter gene under the control of an IFN-stimulated response element (ISRE) containing MxA promoter.
Assay type: functional
Parameters: scale not given: direction of the effect not stated beside the values
Test context: 30 µM
Give just the numeric value; % need not be written.

Please review the following examples before continuing.
CC(C)C(=O)NCC(=O)N(C)C1CCCN(C2Cc3ccccc3C2)C1 (centres undefined) ... 11.7
COc1ccc(CCN2CCCC(CN(C)Cc3ccc(C)o3)C2)cc1 (centres undefined) ... 11.1
COc1ccc(CCNC(=O)NC2CCCC2)cc1OC ... 6.13

Fill blank: measured Percent Effect of the compound CCn1cnnc1CNC(=O)N1CCN(Cc2ccccc2)CC1 is ____.
0.217

Fill blank: measured Percent Effect of the compound O=C(c1n[nH]c(=O)c2ccccc12)N1CCCCC1c1ccn[nH]1 (centres undefined) is ____.
0.863

Fill blank: measured Percent Effect of the compound O=C(O)[C@@H]1CN(C(=O)c2ccc3[nH]nnc3c2)C[C@H]1c1cccc(F)c1 is ____.
3.52

Fill blank: measured Percent Effect of the compound Cc1cnn(CC2CN(Cc3nccn3C)CCO2)c1 (centres undefined) is ____.
8.74

Fill blank: measured Percent Effect of the compound CNc1cc(N2CCCC2CNCc2c[nH]nc2C(C)(C)C)ncn1 (centres undefined) is ____.
-0.674

----------
Test target: Tyrosyl-tRNA synthetase, putative (Trypanosoma cruzi (strain CL Brener)) (UniProt Q4DSP6)
Experiment summary: Trypanosoma cruzi tyrosyl tRNA synthetase (TcYRS) _High Tyrosine SOP; note: in the data most compounds retested in dose-response had high values
Format: functional
Parameters: scale not given: direction of the effect not stated beside the values
Test context: 30 µM
Recorded endpoint: Percent Effect (%)
Give just the numeric value; % need not be written.

Please review the following examples before continuing.
CCC(=O)Nc1ccc(C(C)NC(=O)COCCOC)cc1 (configuration not stated) ... 4.25
Fc1ccc2[nH]c(C3CCCN3CCc3ccccn3)nc2c1 (configuration not stated) ... 13.5
Cc1nc(C(=O)N2CCCC2c2c(C)nn(C)c2C)ccc1C#N (configuration not stated) ... 0
N#Cc1cn(C2CC2)c(=O)n(CC(O)c2ccc(OC(F)F)cc2)c1=O (configuration not stated) ... 0.49
Cc1ccc(OCC(=O)NCc2ccccc2F)nc1 ... 7.29

Fill blank: measured Percent Effect of the compound CCc1ccc(C(=O)O)cc1S(=O)(=O)Nc1ccc(F)c(C#N)c1 is ____.
-2.46

Fill blank: measured Percent Effect of the compound NS(=O)(=O)Cc1ccc(CNC(=O)NCC2CCOC2)cc1 (configuration not stated) is ____.
2.86

Fill blank: measured Percent Effect of the compound CCN(CC)CCNC(=O)c1nn(CC)cc1Cl is ____.
5.29

Fill blank: measured Percent Effect of the compound CSCCNC(=O)c1ccc(OC2CCN(CC(C)(C)C)CC2)c(Cl)c1 is ____.
2.15

Fill blank: measured Percent Effect of the compound Cc1nn(C)c(Cl)c1C1CCCN1CCc1ccccn1 (configuration not stated) is ____.
-1.04

Fill blank: measured Percent Effect of the compound Cc1nn(C)c(Cl)c1CNCc1cccnc1N1CCOCC1 is ____.
9.57

Fill blank: measured Percent Effect of the compound CC(=O)NCC1CCN(CC2CCOc3ccccc3C2)CC1 (configuration not stated) is ____.
4.21
